System: Caco-2 cells
Test: Caco-2 permeability assay (apical to basolateral)
Assay type: in vitro ADME, human
Conditions: Caco-2
Where a SMILES comes first, the peptide text is derived from it. [ ]: non-standard residue; d: D form. dNMeL = CN[C@H](CC(C)C)C(=O)O; Aib = CC(C)(N)C(=O)O
Endpoint label: Caco_R1
Respond numerically, and do not add a unit to the figure.

Request: Please report the recorded Caco_R1 for CC(C)C[C@@H]1NC(=O)[C@@H](CC(C)C)NC(=O)[C@H]2CCCN2C(=O)[C@H](CC(C)C)NC(=O)[C@@H](CC(C)C)NC(=O)[C@H](CC(C)C)NC(=O)[C@@H]2CCCN2C(=O)[C@@H](C)NC1=O [Design D8.1, DLEU LEU DPRO DLEU LEU DALA PRO LEU] (cyclo(L[dA]PL[dL]L[dP][dL])) .
Response: 27.58

Request: Please report the recorded Caco_R1 for CC[C@H](C)[C@@H]1NC(=O)[C@@H](CC(C)C)N(C)C(=O)[C@@H]2CCCN2C(=O)[C@H](C(C)C)NC(=O)C(C)(C)NC(=O)[C@H](CC(C)C)NC(=O)C(C)(C)NC(=O)[C@@H]2CCCN2C(=O)[C@H]2CCCN2C1=O [Design D9.1, DPRO PRO AIB LEU AIB VAL PRO *DLEU ILE] (cyclo([Aib]L[Aib]VP[dNMeL]I[dP]P)) .
Response: 0.42
